Numbers sourced from patent US20220402985A1.

Selectivity SC/CM values by entry
Target: ErbB4 on neonatal rat cardiomyocytes (rat) (UniProt Q62956)
Sequence (Q62956 26-1308): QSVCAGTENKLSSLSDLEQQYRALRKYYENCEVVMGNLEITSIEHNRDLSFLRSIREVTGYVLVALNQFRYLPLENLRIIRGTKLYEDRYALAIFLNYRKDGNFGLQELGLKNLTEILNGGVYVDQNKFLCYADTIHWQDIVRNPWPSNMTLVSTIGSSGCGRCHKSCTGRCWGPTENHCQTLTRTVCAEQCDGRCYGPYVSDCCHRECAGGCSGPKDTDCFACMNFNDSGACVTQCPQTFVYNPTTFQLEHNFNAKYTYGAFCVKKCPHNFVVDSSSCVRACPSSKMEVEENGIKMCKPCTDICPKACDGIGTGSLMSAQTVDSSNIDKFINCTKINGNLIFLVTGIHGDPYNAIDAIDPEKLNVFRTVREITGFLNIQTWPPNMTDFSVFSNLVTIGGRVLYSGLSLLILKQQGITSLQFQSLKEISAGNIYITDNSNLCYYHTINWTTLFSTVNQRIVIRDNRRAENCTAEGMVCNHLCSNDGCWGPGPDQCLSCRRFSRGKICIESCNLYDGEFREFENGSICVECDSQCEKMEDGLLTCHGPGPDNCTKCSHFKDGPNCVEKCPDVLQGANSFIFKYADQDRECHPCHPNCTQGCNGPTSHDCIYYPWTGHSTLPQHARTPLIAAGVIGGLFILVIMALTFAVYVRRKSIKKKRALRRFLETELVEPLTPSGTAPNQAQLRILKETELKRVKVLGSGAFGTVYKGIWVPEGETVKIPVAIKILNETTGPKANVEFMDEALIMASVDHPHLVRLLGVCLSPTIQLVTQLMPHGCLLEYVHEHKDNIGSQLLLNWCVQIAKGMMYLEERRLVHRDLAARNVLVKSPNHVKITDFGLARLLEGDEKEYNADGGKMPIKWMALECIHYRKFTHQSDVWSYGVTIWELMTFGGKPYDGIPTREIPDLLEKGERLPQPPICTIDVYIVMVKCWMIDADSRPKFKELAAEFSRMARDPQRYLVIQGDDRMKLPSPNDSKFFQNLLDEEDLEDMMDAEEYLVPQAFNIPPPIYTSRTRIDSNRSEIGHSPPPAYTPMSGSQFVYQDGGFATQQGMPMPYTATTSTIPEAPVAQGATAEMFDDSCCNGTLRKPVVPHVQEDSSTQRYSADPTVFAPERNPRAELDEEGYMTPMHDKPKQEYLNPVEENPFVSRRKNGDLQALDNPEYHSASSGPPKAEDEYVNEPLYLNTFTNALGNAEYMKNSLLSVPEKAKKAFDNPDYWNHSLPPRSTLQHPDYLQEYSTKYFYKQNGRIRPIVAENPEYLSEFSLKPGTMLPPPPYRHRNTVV
Test: cell-based or functional assay

huNRG1(S177-Q237)(NRGE1F)::GG::huFcSEFL2 (Pb) (Fc fusion) SHLVKCAENDKSFCVNGGECYMVEGSSIPSRYLCKCPNEFTGDRCQNDFMASFYKAEELYQGGDKTHTCPPCPAPELLGGPSVFLFPPKPKDTLMISRTPEVTCVVVDVSHEDPEVKFNWYVDGVEVHNAKTKPCEEQYGSTYRCVSVLTVLHQDWLNGKEYKCKVSNKALPAPIEKTISKAKGQPREPQVYTLPPSREEMTKNQVSLTCLVKGFYPSDIAVEWESNGQPENNYKTTPPVLDSDGSFFLYSKLTVDKSRWQQGNVFSCSVMHEALHNHYTQKSLSLSPGK = > 10000
huNRG1(S177-Q237)(NRGE1D)::GG::huFcSEFL2 (Pb) (Fc fusion) SHLVKCGESHKSFCVNGGECYMVEGSSIPSRYLCKCPNEFTGDRCQEDFMASFYKAEELYQGGDKTHTCPPCPAPELLGGPSVFLFPPKPKDTLMISRTPEVTCVVVDVSHEDPEVKFNWYVDGVEVHNAKTKPCEEQYGSTYRCVSVLTVLHQDWLNGKEYKCKVSNKALPAPIEKTISKAKGQPREPQVYTLPPSREEMTKNQVSLTCLVKGFYPSDIAVEWESNGQPENNYKTTPPVLDSDGSFFLYSKLTVDKSRWQQGNVFSCSVMHEALHNHYTQKSLSLSPGK = > 10000
huNRG1(S177-Q237)(3H8)::GG::huFcSEFL2 (Pb) (Fc fusion) SHLVKCGEKHKSFCVNGGECYMVEGSSIPSRYLCKCPNEFTGDRCQEDFMASFYKAEELYQGGDKTHTCPPCPAPELLGGPSVFLFPPKPKDTLMISRTPEVTCVVVDVSHEDPEVKFNWYVDGVEVHNAKTKPCEEQYGSTYRCVSVLTVLHQDWLNGKEYKCKVSNKALPAPIEKTISKAKGQPREPQVYTLPPSREEMTKNQVSLTCLVKGFYPSDIAVEWESNGQPENNYKTTPPVLDSDGSFFLYSKLTVDKSRWQQGNVFSCSVMHEALHNHYTQKSLSLSPGK = > 10000
huNRG1(S177-F229)(NRGE1D) 6xHis (ligand) SHLVKCGESHKSFCVNGGECYMVEGSSIPSRYLCKCPNEFTGDRCQEDFMASFGGGGEGGGGAGGGGHHHHHH = > 10000

Selectivity SC/CM lookup needed for huNRG1(S177-Q237)(NRGE1G)::GG::huFcSEFL2 (Pb) (Fc fusion) SHLVKCGEKHKSFCVNGGECYMVEGSSIPSRYLCKCPNEFTGDRCQNDFMASFYKAEELYQGGDKTHTCPPCPAPELLGGPSVFLFPPKPKDTLMISRTPEVTCVVVDVSHEDPEVKFNWYVDGVEVHNAKTKPCEEQYGSTYRCVSVLTVLHQDWLNGKEYKCKVSNKALPAPIEKTISKAKGQPREPQVYTLPPSREEMTKNQVSLTCLVKGFYPSDIAVEWESNGQPENNYKTTPPVLDSDGSFFLYSKLTVDKSRWQQGNVFSCSVMHEALHNHYTQKSLSLSPGK , thanks.
> 10000
